TARGET: Beta-1 adrenergic receptor (Homo sapiens, UniProt P08588); further: assay procedure not described here
Sequence (P08588 whole entry): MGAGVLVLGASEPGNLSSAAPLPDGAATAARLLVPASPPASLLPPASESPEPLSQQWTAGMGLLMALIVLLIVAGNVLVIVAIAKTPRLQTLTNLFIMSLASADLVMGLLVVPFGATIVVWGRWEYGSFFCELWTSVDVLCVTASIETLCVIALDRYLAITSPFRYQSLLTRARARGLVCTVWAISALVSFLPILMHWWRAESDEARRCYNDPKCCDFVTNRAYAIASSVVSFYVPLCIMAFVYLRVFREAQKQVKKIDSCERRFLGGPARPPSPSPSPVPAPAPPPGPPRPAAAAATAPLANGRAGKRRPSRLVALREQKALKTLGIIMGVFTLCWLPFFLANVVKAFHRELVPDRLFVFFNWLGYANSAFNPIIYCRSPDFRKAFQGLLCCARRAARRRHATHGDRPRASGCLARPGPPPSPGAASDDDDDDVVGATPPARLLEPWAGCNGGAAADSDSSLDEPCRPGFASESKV
Type: functional
Would you kindly list AC50 for each of these molecules?

// returns AC50 for CC(C)[N+](C)(CCC(C(N)=O)(c1ccccc1)c1ccccc1)C(C)C [ISOPROPAMIDE] with Beta-1 adrenergic receptor (Homo sapiens, UniProt P08588); value = > 10 µM

Test item CCCCCCCCOc1ccccc1C(=O)Nc1ccc(C(=O)OCC[N+](C)(CC)CC)cc1 [OTILONIUM BROMIDE] ; Beta-1 adrenergic receptor (Homo sapiens, UniProt P08588); reported AC50 was 11 µM

// assay Beta-1 adrenergic receptor (Homo sapiens, UniProt P08588), entry C#C[C@]1(O)CC[C@H]2[C@@H]3CCc4cc(O)ccc4[C@H]3CC[C@@]21C , AC50 value = > 10 µM

So the reported AC50 for COc1ccc(C(=O)NCc2ccc(OCCN(C)C)cc2)cc1OC [ITOPRIDE] , on Beta-1 adrenergic receptor (Homo sapiens, UniProt P08588), turned out to be > 30 µM

Beta-1 adrenergic receptor (Homo sapiens, UniProt P08588) assay, molecule COC(=O)C1=C(C)NC(C)=C(C(=O)OCC(C)C)C1c1ccccc1[N+](=O)[O-] (stereo not drawn) , recorded AC50 = > 10 µM

Summary: Cc1c(C(=O)Nc2ccc(N3C[C@@H](C)O[C@@H](C)C3)nc2)cccc1-c1ccc(OC(F)(F)F)cc1 , Beta-1 adrenergic receptor (Homo sapiens, UniProt P08588), AC50 = > 10 µM

The molecule CC(C)Cc1ccc(CC(=O)O)cc1 on Beta-1 adrenergic receptor (Homo sapiens, UniProt P08588): AC50 was > 30 µM

Reported AC50 (Beta-1 adrenergic receptor (Homo sapiens, UniProt P08588)) for entry C#CCN[C@@H]1CCc2ccccc21 is > 30 µM

Kindly note: Beta-1 adrenergic receptor (Homo sapiens, UniProt P08588), CC/C=C\C/C=C\C/C=C\CCCCCCCC(=O)O , AC50 value reported: > 30 µM

The observed AC50 for CN(CCOc1ccc(NS(C)(=O)=O)cc1)CCc1ccc(NS(C)(=O)=O)cc1 [DOFETILIDE] when tested with Beta-1 adrenergic receptor (Homo sapiens, UniProt P08588) stands at > 10 µM

Record CCCS(=O)(=O)Nc1ccc(F)c(C(=O)c2c[nH]c3ncc(-c4ccc(Cl)cc4)cc23)c1F ; system Beta-1 adrenergic receptor (Homo sapiens, UniProt P08588); AC50 = > 30 µM

Simply: C[C@]12CCC(=O)C=C1CC[C@@H]1[C@@H]2CC[C@@]2(C)[C@H]1CC[C@]2(C)O , Beta-1 adrenergic receptor (Homo sapiens, UniProt P08588), AC50 = > 30 µM

The molecule CN1CC[C@]23CCCC[C@H]2[C@H]1Cc1ccc(O)cc13 on Beta-1 adrenergic receptor (Homo sapiens, UniProt P08588): AC50 was > 10 µM

Bench note, Beta-1 adrenergic receptor (Homo sapiens, UniProt P08588): N[C@@H](CSCC(=O)O)C(=O)O , AC50 reads > 30 µM

Reported AC50 (Beta-1 adrenergic receptor (Homo sapiens, UniProt P08588)) for entry Nc1ncnc2c1ncn2[C@@H]1O[C@H](COP(=O)(O)O)[C@@H](O)[C@H]1O [ADENOSINE PHOSPHATE] is > 30 µM

# lookup: COc1cc(Nc2c(C#N)cnc3cc(OCCCN4CCN(C)CC4)c(OC)cc23)c(Cl)cc1Cl on Beta-1 adrenergic receptor (Homo sapiens, UniProt P08588), AC50 = > 10 µM

Lab note: molecule COc1ccc2cccc(CCNC(C)=O)c2c1 tested on Beta-1 adrenergic receptor (Homo sapiens, UniProt P08588); recorded AC50 was > 10 µM

Assay Beta-1 adrenergic receptor (Homo sapiens, UniProt P08588), sample CC(C(O)c1ccc(O)cc1)N1CCC(Cc2ccccc2)CC1 (stereo not drawn) , AC50 read: 23 µM

Where do the numbers come from? From ChEMBL document CHEMBL5291721.
